# ECL signal per entry
Molecular target: T1, Recombinant Human DLL4 (delta-like protein 4) (human, UniProt Q9NR61 27-529)
T1 construct: Bought recombinant human DLL4 (R&D Systems Cat#1506-D4/CF); also called rHuman DLL4; Delta-like 4
Test: 96-well plate ECL binding assay, DLL4 immobilised, Fab in solution
measured metric: ECL signal

binder | observed result
Fab VH1-46_IGHD6-6*01_IGHJ1*01 S102A/S103P/S104F/H111F & L6_IGKJ1*01 S28N/S30D/S31H S52L (Fab, V domains shown, Fab made in E. coli; The rest is CH1 from plasmid A (His6 and Flag tags) and kappa CL from plasmid C; also called H:APFF & L:NDH S52L) VH: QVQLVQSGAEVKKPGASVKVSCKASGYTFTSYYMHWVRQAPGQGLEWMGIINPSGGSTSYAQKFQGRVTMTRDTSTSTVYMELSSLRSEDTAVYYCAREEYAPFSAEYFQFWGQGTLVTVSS VL: EIVLTQSPATLSLSPGERATLSCRASQNVDHYLAWYQQKPGQAPRLLIYDALNRATGIPARFSGSGSGTDFTLTISSLEPEDFAVYYCQQRSNWPPWTFGQGTKVEIKR | 17800
Fab VH1-46_IGHD6-6*01_IGHJ1*01 S102A/S103P/S104F/H111F & L6_IGKJ1*01 S28N/S30D/S31H N53E (Fab, V domains shown, Fab with CH1 (plasmid A, His6 and Flag tags) and kappa CL (plasmid C); also called H:APFF & L:NDH N53E) VH: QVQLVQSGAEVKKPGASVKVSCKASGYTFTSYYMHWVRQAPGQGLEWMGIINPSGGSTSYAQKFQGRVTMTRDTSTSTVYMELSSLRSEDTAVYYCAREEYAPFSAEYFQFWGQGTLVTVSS VL: EIVLTQSPATLSLSPGERATLSCRASQNVDHYLAWYQQKPGQAPRLLIYDASERATGIPARFSGSGSGTDFTLTISSLEPEDFAVYYCQQRSNWPPWTFGQGTKVEIKR | 17600
Fab VH1-46_IGHD6-6*01_IGHJ1*01 S102A/S103P/S104F/H111F & L6_IGKJ1*01 S28N/S30D/S31H N53M (Fab, V domains shown, Fab with CH1 (plasmid A, His6 and Flag tags) and kappa CL (plasmid C); also called H:APFF & L:NDH N53M) VH: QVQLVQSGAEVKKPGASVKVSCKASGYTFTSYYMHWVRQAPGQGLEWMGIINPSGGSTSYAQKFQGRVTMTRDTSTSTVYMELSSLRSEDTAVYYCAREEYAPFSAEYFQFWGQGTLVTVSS VL: EIVLTQSPATLSLSPGERATLSCRASQNVDHYLAWYQQKPGQAPRLLIYDASMRATGIPARFSGSGSGTDFTLTISSLEPEDFAVYYCQQRSNWPPWTFGQGTKVEIKR | 17800
Fab VH1-46_IGHD6-6*01_IGHJ1*01 S102A/S103P/S104F/H111F & L6_IGKJ1*01 S28N/S30D/S31H N53H (Fab, V domains shown, Fab with CH1 (plasmid A, His6 and Flag tags) and kappa CL (plasmid C); also called H:APFF & L:NDH N53H) VH: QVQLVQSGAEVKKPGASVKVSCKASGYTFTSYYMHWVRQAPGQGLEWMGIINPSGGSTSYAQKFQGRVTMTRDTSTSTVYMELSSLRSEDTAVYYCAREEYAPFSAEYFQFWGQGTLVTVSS VL: EIVLTQSPATLSLSPGERATLSCRASQNVDHYLAWYQQKPGQAPRLLIYDASHRATGIPARFSGSGSGTDFTLTISSLEPEDFAVYYCQQRSNWPPWTFGQGTKVEIKR | 20100
Fab VH1-46_IGHD6-6*01_IGHJ1*01 S102A/S103P/S104F/H111F & L6_IGKJ1*01 S28N/S30D/S31H S52M (Fab, V domains shown, Fab with CH1 (plasmid A, His6 and Flag tags) and kappa CL (plasmid C); also called H:APFF & L:NDH S52M) VH: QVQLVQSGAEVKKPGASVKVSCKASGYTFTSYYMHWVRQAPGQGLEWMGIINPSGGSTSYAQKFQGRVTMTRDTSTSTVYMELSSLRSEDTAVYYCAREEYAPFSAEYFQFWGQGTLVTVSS VL: EIVLTQSPATLSLSPGERATLSCRASQNVDHYLAWYQQKPGQAPRLLIYDAMNRATGIPARFSGSGSGTDFTLTISSLEPEDFAVYYCQQRSNWPPWTFGQGTKVEIKR | 19500
Fab VH1-46_IGHD6-6*01_IGHJ1*01 S102A/S103P/S104F/H111F & L6_IGKJ1*01 S28N/S30D/S31H S52W (Fab, V domains shown, Fab with CH1 (plasmid A, His6 and Flag tags) and kappa CL (plasmid C); also called H:APFF & L:NDH S52W) VH: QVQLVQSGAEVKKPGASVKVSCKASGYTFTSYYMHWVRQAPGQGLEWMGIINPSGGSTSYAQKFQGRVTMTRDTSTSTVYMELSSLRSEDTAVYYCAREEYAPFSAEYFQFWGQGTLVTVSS VL: EIVLTQSPATLSLSPGERATLSCRASQNVDHYLAWYQQKPGQAPRLLIYDAWNRATGIPARFSGSGSGTDFTLTISSLEPEDFAVYYCQQRSNWPPWTFGQGTKVEIKR | 16300
Fab VH1-46_IGHD6-6*01_IGHJ1*01 S102A/S103P/S104F/H111F & L6_IGKJ1*01 S28N/S30D/S31H N53G (Fab, V domains shown, Fab with CH1 (plasmid A, His6 and Flag tags) and kappa CL (plasmid C); also called H:APFF & L:NDH N53G) VH: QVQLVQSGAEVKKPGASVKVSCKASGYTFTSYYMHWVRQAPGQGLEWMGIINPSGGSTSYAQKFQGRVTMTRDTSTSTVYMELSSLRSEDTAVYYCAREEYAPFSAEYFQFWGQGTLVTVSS VL: EIVLTQSPATLSLSPGERATLSCRASQNVDHYLAWYQQKPGQAPRLLIYDASGRATGIPARFSGSGSGTDFTLTISSLEPEDFAVYYCQQRSNWPPWTFGQGTKVEIKR | 20600
Fab VH1-46_IGHD6-6*01_IGHJ1*01 S102A/S103P/S104F/H111F & L6_IGKJ1*01 S28N/S30D/S31H S52T (Fab, V domains shown, Fab with CH1 (plasmid A, His6 and Flag tags) and kappa CL (plasmid C); also called H:APFF & L:NDH S52T) VH: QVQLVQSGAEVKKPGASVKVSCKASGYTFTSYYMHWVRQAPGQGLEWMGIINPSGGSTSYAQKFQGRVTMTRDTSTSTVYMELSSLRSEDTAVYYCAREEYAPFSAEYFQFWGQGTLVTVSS VL: EIVLTQSPATLSLSPGERATLSCRASQNVDHYLAWYQQKPGQAPRLLIYDATNRATGIPARFSGSGSGTDFTLTISSLEPEDFAVYYCQQRSNWPPWTFGQGTKVEIKR | 20100
Fab VH1-46_IGHD6-6*01_IGHJ1*01 S102A/S103P/S104F/H111F & L6_IGKJ1*01 S28N/S30D/S31H (Fab, V domains shown, Parental template of this NNK series; Fab with CH1 (plasmid A, His6 and Flag tags) and kappa CL (plasmid C); also called H:APFF & L:NDH; NDH) VH: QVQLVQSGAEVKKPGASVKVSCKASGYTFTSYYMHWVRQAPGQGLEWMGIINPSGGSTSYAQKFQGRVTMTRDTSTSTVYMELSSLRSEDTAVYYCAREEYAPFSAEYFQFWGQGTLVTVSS VL: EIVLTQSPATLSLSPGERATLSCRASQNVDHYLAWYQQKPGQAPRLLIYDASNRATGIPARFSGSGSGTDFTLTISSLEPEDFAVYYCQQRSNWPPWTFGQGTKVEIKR | 18700
